protocolSummary: Cytotoxicity of compound against Melan-a cells determined as percent cell survival at 100 ppm
Assay type: functional, Mus musculus
As shown below, each of these molecules has a reported Cell survival value.

[
  {
    "molecularString": "O=C(N[C@@H](Cc1ccccc1)C(=O)N[C@@H](Cc1ccc(O)cc1)C(=O)N[C@@H](Cc1ccc(O)cc1)C(=O)O)OCc1cc(=O)c(O)co1",
    "value": "124.4%"
  }
]

Recorded Cell survival (molecule O=c1cc(CO)occ1O ): 86.92%

Recorded Cell survival (molecule O=C(N[C@@H](Cc1ccccc1)C(=O)N[C@@H](Cc1c[nH]c2ccccc12)C(=O)N[C@@H](Cc1ccc(O)cc1)C(=O)O)OCc1cc(=O)c(O)co1 ): 128.08%

Recorded Cell survival (molecule O=C(N[C@@H](Cc1ccccc1)C(=O)N[C@@H](Cc1ccccc1)C(=O)N[C@@H](Cc1ccc(O)cc1)C(=O)O)OCc1cc(=O)c(O)co1 ): 104.36%

Recorded Cell survival (molecule NCCCC[C@H](NC(=O)OCc1cc(=O)c(O)co1)C(=O)N[C@@H](CCC(=O)O)C(=O)N[C@@H](Cc1ccc(O)cc1)C(=O)O ): 100.81%

This collection of values is drawn from ChEMBL document CHEMBL1148263.
